- Tested target: Maternal embryonic leucine zipper kinase (Homo sapiens, UniProt Q14680)
pIC50: −log10 of the molar value.
Outcome measure: pIC50

[ask] Field: pIC50 (Maternal embryonic leucine zipper kinase (Homo sapiens, UniProt Q14680)). Entry: COc1ncc(F)cc1CNc1ccc(Cc2c[nH]c3ncc(C)cc23)c(F)n1
[reply] < 6.00

* * *

- Experimental details: Drug concentration in 5XFAD mouse brain at 75 ppm administered as rodent chow starting from 1.5 months and measured after 5 months
- Format: ADME, tissue-based
- Protocol conditions: route po, time 3.5 months, read-out: Ct
Outcome measure: concentration at 2555 h (nM)
Reply numerically in nM, unit not repeated.

[ask] Please give the measured concentration at 2555 h for this molecule: FC(F)(F)c1ccc(CNc2ccc(Cc3c[nH]c4ncc(Cl)cc34)cn2)cn1
[reply] 600

* * *

- Tested target: Epidermal growth factor receptor (Homo sapiens)
- Sequence (P00533 whole entry): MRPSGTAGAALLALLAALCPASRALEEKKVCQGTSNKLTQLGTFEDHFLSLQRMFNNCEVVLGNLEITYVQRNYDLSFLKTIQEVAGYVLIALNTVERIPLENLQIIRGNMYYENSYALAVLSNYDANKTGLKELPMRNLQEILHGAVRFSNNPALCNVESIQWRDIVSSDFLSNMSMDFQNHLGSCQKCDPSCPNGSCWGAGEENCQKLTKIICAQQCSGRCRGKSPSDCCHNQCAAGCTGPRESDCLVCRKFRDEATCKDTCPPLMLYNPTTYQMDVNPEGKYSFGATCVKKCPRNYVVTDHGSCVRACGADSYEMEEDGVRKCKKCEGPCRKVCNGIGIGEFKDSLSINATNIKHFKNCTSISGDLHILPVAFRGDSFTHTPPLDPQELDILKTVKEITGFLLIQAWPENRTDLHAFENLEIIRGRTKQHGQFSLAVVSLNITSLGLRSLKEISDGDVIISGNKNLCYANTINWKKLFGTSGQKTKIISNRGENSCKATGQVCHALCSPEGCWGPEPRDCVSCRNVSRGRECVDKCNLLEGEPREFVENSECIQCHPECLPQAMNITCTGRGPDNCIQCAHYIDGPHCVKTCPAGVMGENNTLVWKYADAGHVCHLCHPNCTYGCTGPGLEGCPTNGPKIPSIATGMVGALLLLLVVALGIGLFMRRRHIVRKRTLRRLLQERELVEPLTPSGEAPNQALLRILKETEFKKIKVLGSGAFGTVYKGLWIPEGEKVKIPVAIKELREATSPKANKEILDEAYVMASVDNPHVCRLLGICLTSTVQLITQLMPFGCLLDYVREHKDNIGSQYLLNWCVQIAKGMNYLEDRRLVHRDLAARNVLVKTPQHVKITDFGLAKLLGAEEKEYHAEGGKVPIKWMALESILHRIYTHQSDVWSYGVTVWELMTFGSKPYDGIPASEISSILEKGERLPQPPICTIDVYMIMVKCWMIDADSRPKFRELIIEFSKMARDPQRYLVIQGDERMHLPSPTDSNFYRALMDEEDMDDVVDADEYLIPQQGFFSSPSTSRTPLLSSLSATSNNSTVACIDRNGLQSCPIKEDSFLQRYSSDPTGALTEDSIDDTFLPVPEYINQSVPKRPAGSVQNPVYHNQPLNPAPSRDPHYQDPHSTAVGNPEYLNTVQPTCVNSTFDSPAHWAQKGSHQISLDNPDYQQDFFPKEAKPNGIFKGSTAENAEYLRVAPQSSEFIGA
Outcome measure: IC50

[ask] Please give the measured IC50 for this molecule: COc1ncc(F)cc1CNc1ccc(Cc2c[nH]c3ncc(C)cc23)c(F)n1
[reply] > 1000 nM

* * *

- Tested target: Tyrosine-protein kinase JAK2 (Homo sapiens, UniProt O60674)
Outcome measure: IC50

[ask] Please give the measured IC50 for this compound: COc1ncc(F)cc1CNc1ccc(Cc2c[nH]c3ncc(C)cc23)c(F)n1
[reply] > 1000 nM

* * *

- Tested target: Phosphatidylinositol 4,5-bisphosphate 3-kinase catalytic subunit gamma isoform (Homo sapiens, UniProt P48736)
- Sequence (P48736 whole entry, canonical isoform): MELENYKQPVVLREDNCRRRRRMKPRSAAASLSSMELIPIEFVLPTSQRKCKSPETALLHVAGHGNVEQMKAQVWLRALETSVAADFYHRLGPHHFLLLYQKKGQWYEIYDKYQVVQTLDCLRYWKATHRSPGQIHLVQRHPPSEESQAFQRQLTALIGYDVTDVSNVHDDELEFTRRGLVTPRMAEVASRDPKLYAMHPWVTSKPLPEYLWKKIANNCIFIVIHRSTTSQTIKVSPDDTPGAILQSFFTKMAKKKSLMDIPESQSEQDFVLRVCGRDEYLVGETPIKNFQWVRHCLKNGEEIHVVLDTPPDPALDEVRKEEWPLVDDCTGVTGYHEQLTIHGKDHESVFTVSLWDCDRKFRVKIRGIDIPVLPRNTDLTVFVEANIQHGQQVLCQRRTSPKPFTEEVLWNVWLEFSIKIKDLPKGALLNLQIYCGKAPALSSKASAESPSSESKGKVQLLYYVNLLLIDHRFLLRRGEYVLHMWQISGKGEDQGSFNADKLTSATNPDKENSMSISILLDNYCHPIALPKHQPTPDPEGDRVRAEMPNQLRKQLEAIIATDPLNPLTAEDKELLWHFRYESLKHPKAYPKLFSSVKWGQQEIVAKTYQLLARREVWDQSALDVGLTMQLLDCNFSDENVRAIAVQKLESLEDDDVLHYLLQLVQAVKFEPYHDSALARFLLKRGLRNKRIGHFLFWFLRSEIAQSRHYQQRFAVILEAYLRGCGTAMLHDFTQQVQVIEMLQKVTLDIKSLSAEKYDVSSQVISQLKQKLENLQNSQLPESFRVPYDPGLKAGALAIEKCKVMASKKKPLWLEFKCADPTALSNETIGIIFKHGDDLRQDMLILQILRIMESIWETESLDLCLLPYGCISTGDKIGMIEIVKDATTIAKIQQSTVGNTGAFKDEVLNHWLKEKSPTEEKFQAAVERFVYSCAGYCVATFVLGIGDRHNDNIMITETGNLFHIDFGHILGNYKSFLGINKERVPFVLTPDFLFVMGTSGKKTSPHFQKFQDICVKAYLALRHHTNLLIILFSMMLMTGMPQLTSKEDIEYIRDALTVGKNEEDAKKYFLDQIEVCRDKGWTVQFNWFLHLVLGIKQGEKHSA
- Experimental details: Inhibition of PIK3CG (unknown origin)
Outcome measure: IC50

[ask] Please give the measured IC50 for this compound: COc1ncc(F)cc1CNc1ccc(Cc2c[nH]c3ncc(C)cc23)c(F)n1 [PLX-5622]
[reply] > 1 µM

* * *

- Tested target: Ribosomal protein S6 kinase alpha-4 (Homo sapiens, UniProt O75676)
pIC50: −log10 of the molar value.
Outcome measure: pIC50

[ask] Please give the measured pIC50 for this compound: COc1ncc(F)cc1CNc1ccc(Cc2c[nH]c3ncc(C)cc23)c(F)n1
[reply] < 6.00

* * *

- Tested target: Mitogen-activated protein kinase 13 (Homo sapiens, UniProt O15264)
- Sequence (O15264 whole entry): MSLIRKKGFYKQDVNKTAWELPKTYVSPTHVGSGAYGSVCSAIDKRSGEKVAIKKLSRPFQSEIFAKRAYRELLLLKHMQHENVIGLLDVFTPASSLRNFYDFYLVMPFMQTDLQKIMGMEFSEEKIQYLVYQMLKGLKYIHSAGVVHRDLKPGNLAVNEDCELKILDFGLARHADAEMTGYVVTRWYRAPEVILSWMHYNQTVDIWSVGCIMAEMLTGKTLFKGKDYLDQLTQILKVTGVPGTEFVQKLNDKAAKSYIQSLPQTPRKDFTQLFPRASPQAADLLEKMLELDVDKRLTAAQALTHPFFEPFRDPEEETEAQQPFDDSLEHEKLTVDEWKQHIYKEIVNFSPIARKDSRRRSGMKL
- Experimental details: Inhibition of MAPK13 (unknown origin)
pIC50: −log10 of the molar value.
Outcome measure: pIC50

[ask] Field: pIC50 (Mitogen-activated protein kinase 13 (Homo sapiens, UniProt O15264)). Entry: COc1ncc(F)cc1CNc1ccc(Cc2c[nH]c3ncc(C)cc23)c(F)n1
[reply] < 6.00

* * *

- Tested target: Protein kinase C delta type (Homo sapiens)
- Sequence (Q05655 whole entry): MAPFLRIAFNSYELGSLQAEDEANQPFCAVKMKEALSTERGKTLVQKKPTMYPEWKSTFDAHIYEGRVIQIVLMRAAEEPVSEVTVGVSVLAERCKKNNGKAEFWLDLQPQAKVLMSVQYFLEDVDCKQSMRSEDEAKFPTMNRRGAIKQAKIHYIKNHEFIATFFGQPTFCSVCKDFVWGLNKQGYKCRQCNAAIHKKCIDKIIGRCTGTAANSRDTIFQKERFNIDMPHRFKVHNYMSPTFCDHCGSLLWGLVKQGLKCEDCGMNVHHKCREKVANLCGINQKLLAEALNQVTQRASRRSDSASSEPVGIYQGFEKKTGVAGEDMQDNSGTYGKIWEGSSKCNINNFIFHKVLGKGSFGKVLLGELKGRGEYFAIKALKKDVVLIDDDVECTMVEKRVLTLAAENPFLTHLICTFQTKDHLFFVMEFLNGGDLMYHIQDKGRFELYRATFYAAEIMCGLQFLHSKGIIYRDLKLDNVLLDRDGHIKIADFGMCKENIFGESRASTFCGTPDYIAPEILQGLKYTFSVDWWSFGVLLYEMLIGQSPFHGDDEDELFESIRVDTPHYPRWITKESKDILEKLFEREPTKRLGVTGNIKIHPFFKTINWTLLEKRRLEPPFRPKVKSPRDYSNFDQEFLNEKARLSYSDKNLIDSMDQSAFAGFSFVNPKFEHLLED
- Experimental details: Inhibition of PRKCD (unknown origin)
Outcome measure: IC50

[ask] Please give the measured IC50 for this compound: COc1ncc(F)cc1CNc1ccc(Cc2c[nH]c3ncc(C)cc23)c(F)n1 [PLX-5622]
[reply] > 1000 nM

* * *

- Tested target: Receptor-type tyrosine-protein kinase FLT3 (Homo sapiens)
- Sequence (P36888 whole entry): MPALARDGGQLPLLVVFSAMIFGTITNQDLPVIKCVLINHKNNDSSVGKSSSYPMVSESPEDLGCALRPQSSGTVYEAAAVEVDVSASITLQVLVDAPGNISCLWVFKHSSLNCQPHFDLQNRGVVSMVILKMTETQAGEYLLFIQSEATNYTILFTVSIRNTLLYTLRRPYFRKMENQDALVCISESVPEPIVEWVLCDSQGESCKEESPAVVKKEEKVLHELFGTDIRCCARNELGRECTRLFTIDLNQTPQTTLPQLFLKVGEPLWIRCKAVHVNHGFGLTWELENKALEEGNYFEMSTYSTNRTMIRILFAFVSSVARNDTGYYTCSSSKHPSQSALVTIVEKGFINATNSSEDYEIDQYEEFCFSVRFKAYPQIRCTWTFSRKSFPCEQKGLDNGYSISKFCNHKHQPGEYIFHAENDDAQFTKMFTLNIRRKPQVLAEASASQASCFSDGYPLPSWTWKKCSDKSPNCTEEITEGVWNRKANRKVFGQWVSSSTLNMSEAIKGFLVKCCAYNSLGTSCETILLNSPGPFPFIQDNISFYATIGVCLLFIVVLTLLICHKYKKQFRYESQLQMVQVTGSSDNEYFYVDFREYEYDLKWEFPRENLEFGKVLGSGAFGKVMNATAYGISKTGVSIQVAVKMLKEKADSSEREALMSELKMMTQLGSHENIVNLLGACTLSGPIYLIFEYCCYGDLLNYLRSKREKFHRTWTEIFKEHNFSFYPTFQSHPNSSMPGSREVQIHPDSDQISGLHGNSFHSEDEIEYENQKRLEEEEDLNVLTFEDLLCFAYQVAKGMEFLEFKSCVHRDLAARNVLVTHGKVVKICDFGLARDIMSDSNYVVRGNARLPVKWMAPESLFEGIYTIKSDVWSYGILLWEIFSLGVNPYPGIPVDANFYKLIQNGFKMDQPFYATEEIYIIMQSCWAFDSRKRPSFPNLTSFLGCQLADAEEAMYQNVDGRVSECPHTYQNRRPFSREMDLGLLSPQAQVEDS
- Experimental details: Inhibition of FLT3 (unknown origin) in presence of ATP by enzymatic assay
Outcome measure: pIC50
# reply with the number alone; pIC50 is -log10 of concentration in mol/L

[ask] Please give the measured pIC50 for this compound: COc1ncc(F)cc1CNc1ccc(Cc2c[nH]c3ncc(C)cc23)c(F)n1
[reply] 6.41

* * *

- Tested target: Casein kinase II subunit alpha' (Homo sapiens)
- Sequence (P19784 whole entry): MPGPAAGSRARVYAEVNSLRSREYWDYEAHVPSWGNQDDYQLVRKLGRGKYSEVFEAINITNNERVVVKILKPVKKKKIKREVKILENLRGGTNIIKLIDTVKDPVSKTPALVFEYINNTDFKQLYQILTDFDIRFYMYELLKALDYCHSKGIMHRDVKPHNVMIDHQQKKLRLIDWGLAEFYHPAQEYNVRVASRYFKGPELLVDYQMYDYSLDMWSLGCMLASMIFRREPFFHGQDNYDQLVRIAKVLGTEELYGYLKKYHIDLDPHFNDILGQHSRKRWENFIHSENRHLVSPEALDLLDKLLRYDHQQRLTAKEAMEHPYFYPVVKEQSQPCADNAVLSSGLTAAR
- Experimental details: Inhibition of CSNK2A2 (unknown origin)
pIC50: −log10 of the molar value.
Outcome measure: pIC50

[ask] Please give the measured pIC50 for this compound: COc1ncc(F)cc1CNc1ccc(Cc2c[nH]c3ncc(C)cc23)c(F)n1
[reply] < 6.00
